Collected Abs. λmax values appear next to each entry.
assay: Absorption spectra of anthracene diimides in solvents of increasing polarity (Example 1); type: physicochemical; conditions: C2H4Cl2 (10.7)
# unit: nm | format: bare number

Worked set:
{"columns": ["COMPOUND STRUCTURE", "RECORDED METRIC", "REPORTED MEASUREMENT"],
 "data": [
  ["CCCCCCOc1ccc(-n2c(=O)c3cc4cc5c(-c6ccc(OC)cc6)c6c(=O)n(-c7ccc(OCCCCCC)cc7)c(=O)c6cc5cc4c(-c4ccc(OC)cc4)c3c2=O)cc1", "Abs. λmax", 430],
  ["CCCCCCOc1ccc(-n2c(=O)c3cc4cc5c(-c6ccc(C#N)cc6)c6c(=O)n(-c7ccc(OCCCCCC)cc7)c(=O)c6cc5cc4c(-c4ccc(C#N)cc4)c3c2=O)cc1", "Abs. λmax", 425]
]}

Turning now to a further compound:
Field Abs. λmax (entry CCCCCCCCn1c(=O)c2c(-c3ccccc3)c3cc4c(-c5ccccc5)c5c(=O)n(CCCCCCCC)c(=O)c5c(-c5ccccc5)c4cc3c(-c3ccccc3)c2c1=O ) reads 430

* * *

Collected log10(1τ) values appear next to each entry.
assay: Luminescence lifetime by TCSPC (Example 1); format: physicochemical; conditions: Toluene (2.4); TCSPC 370 nm pulsed LED
Recall that a logarithmic scale is used here: each number is log10 of 1τ in ns.

{"columns": ["COMPOUND STRUCTURE", "log10(1τ)"],
 "data": [
  ["CCCCCCCCn1c(=O)c2c(-c3ccccc3)c3cc4c(-c5ccccc5)c5c(=O)n(CCCCCCCC)c(=O)c5c(-c5ccccc5)c4cc3c(-c3ccccc3)c2c1=O", 0.44],
  ["CCCCCCCCn1c(=O)c2cc3cc4c(-c5ccccc5)c5c(=O)n(CCCCCCCC)c(=O)c5cc4cc3c(-c3ccccc3)c2c1=O", 0.80],
  ["CCCCCCOc1ccc(-n2c(=O)c3cc4cc5c(-c6ccc(C#N)cc6)c6c(=O)n(-c7ccc(OCCCCCC)cc7)c(=O)c6cc5cc4c(-c4ccc(C#N)cc4)c3c2=O)cc1", -0.41],
  ["CCCCCCOc1ccc(-n2c(=O)c3cc4cc5c(-c6ccccc6)c6c(=O)n(-c7ccc(OCCCCCC)cc7)c(=O)c6cc5cc4c(-c4ccccc4)c3c2=O)cc1", -0.21],
  ["CCCCCCOc1ccc(-n2c(=O)c3c(-c4ccccc4)c4cc5c(-c6ccccc6)c6c(=O)n(-c7ccc(OCCCCCC)cc7)c(=O)c6c(-c6ccccc6)c5cc4c(-c4ccccc4)c3c2=O)cc1", 0.01]
]}

Turning now to a further compound:
Field log10(1τ) (entry CCCCCCOc1ccc(-n2c(=O)c3cc4cc5c(-c6ccc(OC)cc6)c6c(=O)n(-c7ccc(OCCCCCC)cc7)c(=O)c6cc5cc4c(-c4ccc(OC)cc4)c3c2=O)cc1 ) reads 0.10

* * *

Collected Abs. λmax values appear next to each entry.
experiment: Absorption spectra of anthracene diimides in solvents of increasing polarity (Example 1); assay type: physicochemical; conditions: Toluene (2.4)
# unit: nm | format: bare number

Worked set:
{"columns": ["COMPOUND STRUCTURE", "RECORDED METRIC", "REPORTED MEASUREMENT"],
 "data": [
  ["CCCCCCOc1ccc(-n2c(=O)c3cc4cc5c(-c6ccc(OC)cc6)c6c(=O)n(-c7ccc(OCCCCCC)cc7)c(=O)c6cc5cc4c(-c4ccc(OC)cc4)c3c2=O)cc1", "Abs. λmax", 428],
  ["CCCCCCCCn1c(=O)c2c(-c3ccccc3)c3cc4c(-c5ccccc5)c5c(=O)n(CCCCCCCC)c(=O)c5c(-c5ccccc5)c4cc3c(-c3ccccc3)c2c1=O", "Abs. λmax", 428],
  ["CCCCCCCCn1c(=O)c2cc3cc4c(-c5ccccc5)c5c(=O)n(CCCCCCCC)c(=O)c5cc4cc3c(-c3ccccc3)c2c1=O", "Abs. λmax", 422],
  ["CCCCCCOc1ccc(-n2c(=O)c3cc4cc5c(-c6ccccc6)c6c(=O)n(-c7ccc(OCCCCCC)cc7)c(=O)c6cc5cc4c(-c4ccccc4)c3c2=O)cc1", "Abs. λmax", 422],
  ["CCCCCCOc1ccc(-n2c(=O)c3c(-c4ccccc4)c4cc5c(-c6ccccc6)c6c(=O)n(-c7ccc(OCCCCCC)cc7)c(=O)c6c(-c6ccccc6)c5cc4c(-c4ccccc4)c3c2=O)cc1", "Abs. λmax", 431]
]}

Turning now to a further molecule:
Field Abs. λmax (entry CCCCCCOc1ccc(-n2c(=O)c3cc4cc5c(-c6ccc(C#N)cc6)c6c(=O)n(-c7ccc(OCCCCCC)cc7)c(=O)c6cc5cc4c(-c4ccc(C#N)cc4)c3c2=O)cc1 ) reads 417

* * *

assay: Radiative quantum yield against standards (Example 1); format: physicochemical; conditions: Toluene (2.4)
Collected Φr values appear next to each entry.
// no unit, no text: just the number

Worked set:
{"columns": ["COMPOUND STRUCTURE", "Φr"],
 "data": [
  ["CCCCCCOc1ccc(-n2c(=O)c3cc4cc5c(-c6ccc(OC)cc6)c6c(=O)n(-c7ccc(OCCCCCC)cc7)c(=O)c6cc5cc4c(-c4ccc(OC)cc4)c3c2=O)cc1", 0.18],
  ["CCCCCCCCn1c(=O)c2c(-c3ccccc3)c3cc4c(-c5ccccc5)c5c(=O)n(CCCCCCCC)c(=O)c5c(-c5ccccc5)c4cc3c(-c3ccccc3)c2c1=O", 0.19]
]}

Field Φr (entry CCCCCCOc1ccc(-n2c(=O)c3cc4cc5c(-c6ccc(C#N)cc6)c6c(=O)n(-c7ccc(OCCCCCC)cc7)c(=O)c6cc5cc4c(-c4ccc(C#N)cc4)c3c2=O)cc1 ) reads 0.046

* * *

test: Absorption spectra of anthracene diimides in solvents of increasing polarity (Example 1); type: physicochemical; details: THF (7.6)
RECORDED METRIC: Abs. λmax (nm)
# unit: nm | format: bare number

{"columns": ["COMPOUND", "REPORTED MEASUREMENT"],
 "data": [
  ["CCCCCCOc1ccc(-n2c(=O)c3c(-c4ccccc4)c4cc5c(-c6ccccc6)c6c(=O)n(-c7ccc(OCCCCCC)cc7)c(=O)c6c(-c6ccccc6)c5cc4c(-c4ccccc4)c3c2=O)cc1 [TP]", 429],
  ["CCCCCCOc1ccc(-n2c(=O)c3cc4cc5c(-c6ccc(C#N)cc6)c6c(=O)n(-c7ccc(OCCCCCC)cc7)c(=O)c6cc5cc4c(-c4ccc(C#N)cc4)c3c2=O)cc1 [DC]", 420]
]}

Turning now to a further compound:
Field Abs. λmax (entry CCCCCCCCn1c(=O)c2c(-c3ccccc3)c3cc4c(-c5ccccc5)c5c(=O)n(CCCCCCCC)c(=O)c5c(-c5ccccc5)c4cc3c(-c3ccccc3)c2c1=O [TPO] ) reads 427

* * *

Collected Abs. λmax values appear next to each entry.
assay: Absorption spectra of anthracene diimides in solvents of increasing polarity (Example 1); type: physicochemical; settings: C2H4Cl2 (10.7)
Please give the number followed by its unit.

Worked set:
{"columns": ["COMPOUND STRUCTURE", "Abs. λmax"],
 "data": [
  ["CCCCCCOc1ccc(-n2c(=O)c3c(-c4ccccc4)c4cc5c(-c6ccccc6)c6c(=O)n(-c7ccc(OCCCCCC)cc7)c(=O)c6c(-c6ccccc6)c5cc4c(-c4ccccc4)c3c2=O)cc1", "435 nm"],
  ["CCCCCCOc1ccc(-n2c(=O)c3cc4cc5c(-c6ccccc6)c6c(=O)n(-c7ccc(OCCCCCC)cc7)c(=O)c6cc5cc4c(-c4ccccc4)c3c2=O)cc1", "426 nm"]
]}

Turning now to a further compound:
Field Abs. λmax (entry CCCCCCCCn1c(=O)c2cc3cc4c(-c5ccccc5)c5c(=O)n(CCCCCCCC)c(=O)c5cc4cc3c(-c3ccccc3)c2c1=O ) reads 424 nm

* * *

test: Radiative quantum yield against standards (Example 1); type: physicochemical; conditions: Ethyl Acetate (6.02)
Collected Φr values appear next to each entry.

Field Φr (entry CCCCCCCCn1c(=O)c2c(-c3ccccc3)c3cc4c(-c5ccccc5)c5c(=O)n(CCCCCCCC)c(=O)c5c(-c5ccccc5)c4cc3c(-c3ccccc3)c2c1=O ) reads 0.21

* * *

Collected Abs. λmax values appear next to each entry.
test: Absorption spectra of anthracene diimides in solvents of increasing polarity (Example 1); type: physicochemical; conditions: CHCl3 (4.8)
# unit: nm | format: bare number

Worked set:
{"columns": ["COMPOUND", "RECORDED METRIC", "REPORTED MEASUREMENT"],
 "data": [
  ["CCCCCCOc1ccc(-n2c(=O)c3cc4cc5c(-c6ccccc6)c6c(=O)n(-c7ccc(OCCCCCC)cc7)c(=O)c6cc5cc4c(-c4ccccc4)c3c2=O)cc1 [DP]", "Abs. λmax", 428],
  ["CCCCCCCCn1c(=O)c2c(-c3ccccc3)c3cc4c(-c5ccccc5)c5c(=O)n(CCCCCCCC)c(=O)c5c(-c5ccccc5)c4cc3c(-c3ccccc3)c2c1=O [TPO]", "Abs. λmax", 432],
  ["CCCCCCOc1ccc(-n2c(=O)c3c(-c4ccccc4)c4cc5c(-c6ccccc6)c6c(=O)n(-c7ccc(OCCCCCC)cc7)c(=O)c6c(-c6ccccc6)c5cc4c(-c4ccccc4)c3c2=O)cc1 [TP]", "Abs. λmax", 435],
  ["CCCCCCCCn1c(=O)c2cc3cc4c(-c5ccccc5)c5c(=O)n(CCCCCCCC)c(=O)c5cc4cc3c(-c3ccccc3)c2c1=O [DPO]", "Abs. λmax", 426],
  ["CCCCCCOc1ccc(-n2c(=O)c3cc4cc5c(-c6ccc(OC)cc6)c6c(=O)n(-c7ccc(OCCCCCC)cc7)c(=O)c6cc5cc4c(-c4ccc(OC)cc4)c3c2=O)cc1 [DM]", "Abs. λmax", 431]
]}

Turning now to a further compound:
Field Abs. λmax (entry CCCCCCOc1ccc(-n2c(=O)c3cc4cc5c(-c6ccc(C#N)cc6)c6c(=O)n(-c7ccc(OCCCCCC)cc7)c(=O)c6cc5cc4c(-c4ccc(C#N)cc4)c3c2=O)cc1 [DC] ) reads 425
